For reference, the following IC50 results for SIK3 (Homo sapiens) were taken from various sources.

Worked examples, 4 compounds total:
COc1cc(-c2c3c(C(F)F)cc(-c4cnn(CCC(C)(C)O)c4)cc3nn2C)cc(OC(F)F)c1C(=O)N[C@@H]1CC1(F)F; 0.7 nM
COc1cc(-c2c3c(C#N)cc(-c4cc(C)ns4)cc3nn2C)cc(OC(F)F)c1C(=O)N[C@@H]1C[C@@H]1F; 4 nM
COc1cc(-c2cnc3cc(OCCNC(C)=O)ccn23)cc(OC(F)F)c1C(=O)NC1CC1; 0.01 to 10 nM
COc1cc(-c2cnc3cc(OCCNc4ccncn4)ccn23)cc(OC(F)F)c1C(=O)NC1CC1; 0.01 to 10 nM

Print SIK3 (Homo sapiens) IC50 for CCOC(=O)C1(F)CCN(CCCOc2ccn3c(-c4cc(OC)c(C(=O)NC5CC5)c(OC(F)F)c4)cnc3c2)CC1 .
0.01 to 10 nM

Print SIK3 (Homo sapiens) IC50 for COc1cc(-c2cnc3cc(OCC4(C)CCCN4)ccn23)cc(OC(F)F)c1C(=O)NC1CC1 (centres unmarked) .
0.01 to 10 nM

Print SIK3 (Homo sapiens) IC50 for COc1cc(-c2cnc3cc(OCCCN4CC(O)C(F)(F)C4)ccn23)cc(OC(F)F)c1C(=O)NC1CC1 (centres unmarked) .
0.01 to 10 nM

Print SIK3 (Homo sapiens) IC50 for COc1cc(-c2cnc3cc(OCC(O)CN4CCCCC4)ccn23)cc(OC(F)F)c1C(=O)NC1CC1 (centres unmarked) .
0.01 to 10 nM

Print SIK3 (Homo sapiens) IC50 for Fc1c(-c2c[nH]c3ncc(-c4ccsc4)cc23)ccnc1Cl .
> 100 nM

Print SIK3 (Homo sapiens) IC50 for COc1cc(-c2c3c(C#N)cc(-c4cnn(CCC5(O)CCC5)c4)cc3nn2C)cc(OC(F)F)c1C(=O)N[C@@H]1CC1(F)F .
0.6 nM

====

For reference, the following IC50 results for UniProt:Q9Y2K2 were taken from various sources.

OCCN1CCC(n2cc(-c3cnc4[nH]cc(-c5ccc6c(c5)OC(F)(F)O6)c4c3)cn2)CC1; < 100 nM
COc1cc(-c2cnc3cc(OCC4(CN)CCC4)ccn23)cc(OC(F)F)c1C(=O)NC1CC1; 0.01 to 10 nM
COc1cc(-c2cnc3cc(OCCN(C)c4ccccn4)ccn23)cc(OC(F)F)c1C(=O)NC1CC1; 0.01 to 10 nM
COc1cc(-c2c3c(C#N)cc(-c4cnn(CC(F)(F)F)c4)cc3nn2C)cc2c1C(=O)NCC2(C)C; 7.8 nM
COc1cc(-c2cnc3cc(OCCN(C)C)ccn23)cc2c1C(=O)N(CC(F)F)CC2; 10 to 100 nM

In one line, give reported IC50 of the entry COc1cc(-c2c3c(C#N)cc(-c4cnn(C[C@H](C)O)c4)cc3nn2C)cc(OC(F)F)c1C(=O)NCC1(F)CC1 .
6.3 nM

In one line, give reported IC50 of the entry COc1cc(-c2c3c(C#N)cc(-c4cnn(C)c4)cc3nn2C)cc(OC(F)F)c1C(=O)NCC1CC1(F)F (centres unmarked) .
6.3 nM

In one line, give reported IC50 of the entry O=S(=O)(c1ccc(-c2c[nH]c3nccc(-c4ccsc4)c23)cc1)N1CCCC1 .
> 1000 nM

In one line, give reported IC50 of the entry COc1cc(-c2cnc3cc(OC4CCCN(C)C4)ccn23)cc(OC(F)F)c1C(=O)NC1CC1 (centres unmarked) .
0.01 to 10 nM

====

For reference, the following IC50 results for SIK3 (Homo sapiens) were taken from various sources.

Print SIK3 (Homo sapiens) IC50 for COc1cc(-c2cnc3cc(OC[C@H]4CCN(C(C)C)C4)ccn23)cc(OC(F)F)c1C(=O)NC1CC1 .
0.01 to 10 nM

Print SIK3 (Homo sapiens) IC50 for C[C@H]1CNC(=O)c2c(OC(F)F)cc(-c3c4c(C#N)cc(-c5cnn(C)c5)cc4nn3C)cc21 (single isomer, unassigned) .
2 nM

Print SIK3 (Homo sapiens) IC50 for OCCN1CCN(c2cnn(-c3cnc4[nH]cc(-c5ccc6c(c5)OC(F)(F)O6)c4c3)c2)CC1 .
< 100 nM

Print SIK3 (Homo sapiens) IC50 for COc1cc(-c2cnc3cc(OCCN(C)c4ccccc4)ccn23)cc(OC(F)F)c1C(=O)NC1CC1 .
0.01 to 10 nM

Print SIK3 (Homo sapiens) IC50 for COc1cc(-c2c3c(C(F)F)cc(-c4cnn(C[C@H](C)O)c4)cc3nn2C)cc(OC(F)F)c1C(=O)N1CC(O)(C(F)F)C1 .
4.8 nM

Print SIK3 (Homo sapiens) IC50 for COc1cc(-c2cnc3cc(OCCCN4CCn5ccnc5C4)ccn23)cc(OC(F)F)c1C(=O)NC1CC1 .
0.01 to 10 nM

Print SIK3 (Homo sapiens) IC50 for CCn1cc(-c2cc(OC(F)F)c3c(-c4cc(OC)c(C(N)=O)c(OC(F)F)c4)n(C)nc3c2)cn1 .
5.5 nM

====

For reference, the following IC50 results for SIK3 (Homo sapiens) were taken from various sources.

Worked examples, 2 compounds total:
CCOC(=O)C1CCCN(CCCOc2ccn3c(-c4cc(OC)c(C(=O)NC5CC5)c(OC(F)F)c4)cnc3c2)C1 (stereo not drawn); 0.01 to 10 nM
COc1cc(-c2cnc3cc(OCC4CC(N)C4)ccn23)cc(OC(F)F)c1C(=O)NC1CC1 (stereo not drawn); 0.01 to 10 nM

In one line, give reported IC50 of the entry COC(=O)[C@@H]1CN(CCOc2ccn3c(-c4cc(OC)c(C(=O)NC5CC5)c(OC(F)F)c4)cnc3c2)CCO1 .
0.01 to 10 nM

In one line, give reported IC50 of the entry COc1cc(-c2c3c(C#N)cc(-c4cnn(CCC(C)(C)O)c4)cc3nn2C)cc(OC(F)F)c1C(=O)NCC1(F)CC1 .
7.9 nM

In one line, give reported IC50 of the entry COc1cc(-c2cnc3cc(OC[C@H]4COCCO4)ccn23)cnc1C(=O)NCC(F)(F)F .
100 to 500 nM

In one line, give reported IC50 of the entry COc1cc(-c2cnc3cc(OCCOCCN(C)C)ccn23)cc(OC(F)F)c1C(=O)NC1CC1 .
0.01 to 10 nM

In one line, give reported IC50 of the entry COc1cc(-c2c3c(C#N)cc(-c4cnn(C[C@@H](C)O)c4)cc3nn2C)cc(OC(F)F)c1C(=O)NCC1(F)CC1 .
9.2 nM

In one line, give reported IC50 of the entry COc1c(F)cc(F)cc1-c1c[nH]c2ncc(-c3csc(N4CCOCC4)n3)cc12 .
< 100 nM

In one line, give reported IC50 of the entry COc1cc(-c2cnc3cc(OCC4CN(C)C(=O)O4)ccn23)cc(OC(F)F)c1C(=O)NC1CC1 (stereo not drawn) .
0.01 to 10 nM

In one line, give reported IC50 of the entry FC1(F)CN(c2c[nH]c3ncc(-c4ccsc4)cc23)C1 .
> 100 nM

In one line, give reported IC50 of the entry COc1cc(-c2c3c(C#N)cc(-c4cnn(C)c4)cc3nn2C)cc2c1C(=O)NCC2C (stereo not drawn) .
10.1 nM

In one line, give reported IC50 of the entry COc1cc(-c2cnc3cc(OCC4CCN(C5COC5)C4)ccn23)cc(OC(F)F)c1C(=O)NC1CC1 (stereo not drawn) .
0.01 to 10 nM
